Attribution: PubChem BioAssay AID602440

Consider the following compounds; for each one, report its inhibition.
target: Sentrin-specific protease 8 (Homo sapiens); experiment: blockers of SENP8 deneddylase activity – biochemical, fluorescence, Nedd8 protein substrate, uHTS, primary screen (AID 602440); conditions: recombinant SENP8, Nedd8 substrate fluorescence; at 20 µM; stronger effect = higher value
The whole screen tested about 360,000 compounds, of which about 2,300 (0.64%) were called active. The sample as a whole holds a higher share of actives than the screen did.
Numbers only, in %.

Look over these answered cases.
compound	observed-property	measured-result
NC(=O)COC(=O)c1cc(S(=O)(=O)N2CCN(c3ccccc3)CC2)ccc1Cl	inhibition	14.7
CCOc1cc(NC(=O)c2ccccc2C(=O)O)c(OCC)cc1NC(=O)c1ccccc1F	inhibition	50.6

Please report inhibition for every entry that follows.
1. COC(=O)CNC(=O)c1ccc2c(c1)S(=O)(=O)c1ccccc1C2=O
2. O=C1NNC(c2ccccc2)=N/C1=C\c1ccc(Cl)cc1
3. Cc1cccc(N(Cc2ccccc2)C(=O)c2ccccc2F)c1

Output:
1. 23.2
2. 64
3. 10.3

Please report inhibition for every entry that follows.
1. Cc1ccc(NS(=O)(=O)c2ccc3c(c2)oc(=O)n3C)c(C)c1
2. Cn1nc(C(F)(F)F)c(C(=O)Nc2cccc(C(F)(F)F)c2)c1SCc1ccc(Cl)cc1
3. Cc1nc(C(=O)NCc2ccccc2)sc1C1(C)CC(c2cccnc2)=NO1 (stereo not drawn)
4. COc1c(F)c(F)c(C(=O)O)c(Nc2ccccc2C)c1F
5. CCOc1ccc(C(c2c(C)[nH][nH]c2=O)c2c(C)[nH][nH]c2=O)cc1OCC
6. NC(=O)c1ccc(N2CCOCC2)nc1

Output:
[12.2, 5.4, 8.5, 4.1, 53.9, 10.6]

Please report inhibition for every entry that follows.
1. N#Cc1c(N)nc2c3c(sc(=N)c2c1N)NC(=O)CC3c1ccccc1Cl (stereo not drawn)
2. O=C(Nc1ccc2c(c1)[C@@H]1C[C@@H](CC(=O)N3CCCCC3)O[C@@H](CO)[C@@H]1O2)NC1CCCCC1
3. CSc1ncc(C(=O)NCCCc2ccccc2)c(C)n1
4. Cc1cc(C=O)c(C)n1-c1ccc(NC2CCCCC2)c([N+](=O)[O-])c1
5. CCOc1cc(NC(=O)Nc2ccccc2)c(OCC)cc1NC(=O)CC
6. O=C(COC(=O)c1ccc2ncsc2c1)Nc1ccc(Cl)cc1
7. Cc1ccc(Cl)c(OCC(=O)N2CCc3ccccc3C2)c1

Output:
1: -174; 2: 15.5; 3: -24.7; 4: 56.6; 5: -0.4; 6: -18.6; 7: 20.7

Please report inhibition for every entry that follows.
1. COC(=O)Cn1c2ccc(C)cc2c2nc(C)sc21
2. CC(C)(C)NC(=O)NC(=O)COC(=O)C1(C)CC1(Cl)Cl (stereo not drawn)
3. Cc1ccc2c(=O)cc(C(=O)NCCc3ccc(S(N)(=O)=O)cc3)oc2c1C
4. COC(=O)Cn1c(=NC(=O)c2cc(OC)c(OC)c(OC)c2)sc2cc(OC)ccc21
5. COc1ccc(NC(=O)CN(C)C(=O)c2ccc(NC3CC3)c([N+](=O)[O-])c2)cc1

Output:
1: 65.4; 2: 12.9; 3: 12.8; 4: -398; 5: 33.7

* * *

target: Sentrin-specific protease 8 (Homo sapiens) (UniProt Q96LD8); experiment: blockers of SENP8 deneddylase activity – biochemical, fluorescence, Nedd8 protein substrate, uHTS, primary screen (AID 602440); conditions: recombinant SENP8, Nedd8 substrate fluorescence; at 20 µM; stronger effect = higher value
Sequence (Q96LD8 whole entry, looked up): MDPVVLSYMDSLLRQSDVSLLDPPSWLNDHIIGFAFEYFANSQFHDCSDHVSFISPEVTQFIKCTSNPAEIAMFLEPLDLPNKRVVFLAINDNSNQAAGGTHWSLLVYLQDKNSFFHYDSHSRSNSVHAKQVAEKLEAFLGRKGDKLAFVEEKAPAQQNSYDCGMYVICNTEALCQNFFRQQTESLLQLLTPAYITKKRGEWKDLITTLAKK
In all, about 360,000 compounds went through this assay and about 2,300 (0.64%) were called active. Many of the other results were omitted from the sample, so actives are more common in it than they were.
observed-property: inhibition (%)
One number for each entry, in %.

Look over these answered cases.
compound	target	inhibition, %
CCCc1cc(=O)[nH]c(SCC(=O)c2c(N)n(CC(C)C)c(=O)n(C)c2=O)n1	Sentrin-specific protease 8 (Homo sapiens) (UniProt Q96LD8)	2.3
Cc1ccc(C2=Nc3c(ccc4ccccc34)C(c3ccncc3)=NN2)cc1	Sentrin-specific protease 8 (Homo sapiens) (UniProt Q96LD8)	-6.5
Cc1ccc(CNS(=O)(=O)CCNC(=O)c2ccccc2)cc1	Sentrin-specific protease 8 (Homo sapiens) (UniProt Q96LD8)	5.7
Cc1nn(Cc2ccc(Cl)cc2)c(Cl)c1/C=N/NC(=O)CNc1ccccc1F	Sentrin-specific protease 8 (Homo sapiens) (UniProt Q96LD8)	7.1
COc1ccccc1C1SCCN1C(=O)c1ccc([N+](=O)[O-])cc1 (stereo not drawn)	Sentrin-specific protease 8 (Homo sapiens) (UniProt Q96LD8)	8.4

Please report inhibition for every entry that follows.
1. CC1CC2=C(CC1/C=N/NC(N)=S)C(C)(C)CCC2 (stereo not drawn)
2. COc1ccc(Br)c(Cn2c(C)c(C(=O)NCc3cccs3)sc2=O)c1
3. COc1cccc(Nc2nnc(SCC(=O)N3CC(=O)Nc4ccccc43)s2)c1
4. C/C=C/C=C/C(=O)O
5. OCc1n[nH]c(CO)n1
6. CCOc1ccc(NC(=O)c2cccc3c2C(=O)N(CC2CCCO2)C3)cc1 (stereo not drawn)
7. Cc1ccc2c(c1)-c1c(ssc1=S)C(C)(C)N2C(=O)CN1C(=O)c2ccccc2C1=O

Output:
1: 12.2; 2: 3.5; 3: -6.6; 4: 11.5; 5: 6.5; 6: 5.6; 7: 50

Please report inhibition for every entry that follows.
1. CN(C)S(=O)(=O)c1ccc(C(=O)NCC2(N3CCOCC3)CCCCC2)cc1
2. CCCc1c(-c2ccccc2F)ncn1Cc1ccccc1OC
3. O=S(=O)(O)CCN1CCOCC1
4. Cc1ccccc1C(=O)NNC(=O)CN1C(=O)c2ccccc2C1=O
5. CCCCNS(=O)(=O)CCNCc1ccccc1OC
6. COC(=O)CN1C(=O)C(C)(C)Oc2ccc(C(=O)Nc3cccc(OC)c3)cc21

Output:
1: 5.2; 2: 2.7; 3: 24.3; 4: 21.1; 5: 5.2; 6: 1.3

Please report inhibition for every entry that follows.
1. O=C(Nc1ccccc1C(F)(F)F)N1CCCC1c1cccnc1 (stereo not drawn)
2. Cc1cc2c(cc1C)N(C(=O)CN1C(=O)c3ccccc3C1=O)C(C)(C)c1ssc(=S)c1-2

Output:
1: 6.2; 2: 41.6
